- Tested on: SNB-75
- Measurement protocol: NCI tumour cell line growth inhibition, 48 h
Active and inactive are the calls of the source. No stated cut-off is given here; in the data, active = GI50 up to about 1.1 µM and inactive = higher.
Quantity kind: GI50

// known answers, use as guide
CCOC(OC1=C(C#N)CCCC1)C(CC)[Se]c1ccccc1[N+](=O)[O-] (centres undefined)    21.9 µM (inactive)
CCP(=O)(OC)C1=CCN(C(=O)OCC[Si](C)(C)C)CC1 (centres undefined)    > 100 µM (inactive)
O=S(=O)(NC1CCCCC1)c1ccc2c(c1)OCCOCCOCCOCCO2    > 100 µM (inactive)
COc1ccc(C2Oc3cc(OC)c(O)cc3[C@@H]2C)cc1 (some centres undefined)    3.08 µM (inactive)
Cc1ccc(S(=O)(=O)N(CC(O)COc2ccccc2)c2ccccc2Cl)cc1 (centres undefined)    22.3 µM (inactive)
COC1=CC2(C=CC1=O)CCNC1=C2C(=O)c2nc[nH]c2C1=O (centres undefined)    > 100 µM (inactive)

Query :: Return reported GI50; argument: CN1C(c2ccccc2)CC(C)(O)CC1c1ccccc1 (centres undefined)
Result :: > 100 µM (inactive)

Query :: Return reported GI50; argument: COC(=O)c1csc([C@@H](OC(=O)[C@H](C)[C@H](CCCC(C)(Cl)Cl)OC(=O)c2csc([C@H](O)CO)n2)C(C)C)n1
Result :: 1.39 µM (inactive)

Query :: Return reported GI50; argument: O=C1CCC(=O)c2cc(Br)ccc2N1
Result :: > 100 µM (inactive)

* * *

- Test system: TK-10
- Measurement protocol: NCI tumour cell line growth inhibition, 48 h
Calls of active or inactive are those of the source. No stated cut-off is given here; in the data, active = GI50 up to about 1.1 µM and inactive = higher.
Quantity kind: GI50

// known answers, use as guide
COc1ccc(/C=C/COC(C)=O)cc1OC    > 100 µM (inactive)
CN(C)CCCOC(=O)C(O)(Cc1ccccc1)C1CC1 (stereo not given)    > 100 µM (inactive)
Nc1nc(Cl)c2ncn(Cc3ccc(CCl)cc3)c2n1    16.6 µM (inactive)
Cc1ccccc1-n1c(=O)c2ncn(CCCl)c2n(-c2ccccc2C)c1=S    > 100 µM (inactive)
C1CC[C@H]2SSC3CCCC[C@H]3SSC2C1 (stereo not given in full)    > 100 µM (inactive)

Query :: Return reported GI50; argument: CN(C)CCNC(=O)c1cccc2c(NC(CCCNC(=N)N)C(=O)O)c3ccccc3[n+](C)c12 (stereo not given)
Result :: > 100 µM (inactive)

Query :: Return reported GI50; argument: CCCCC(C#N)(OP1(=O)OC(c2ccccc2)C(C)N1C)c1ccccc1 (stereo not given)
Result :: 18.9 µM (inactive)

* * *

Reported values of GI50 for individual entries
- Test system: DMS-273
- Measurement protocol: NCI tumour cell line growth inhibition, 48 h
Activity calls are given as the source filed them. Rule as the data show it: active = GI50 up to about 1.1 µM and inactive = higher.

// known answers, use as guide
CC(=O)OC(OC(C)=O)c1ncccc1C(=O)OC(C)C    31.3 µM (inactive)
COc1cc(C2C3=C(CCC3=O)Oc3cc4c(cc32)OCO4)cc(OC)c1OC (configuration not stated)    0.158 µM (active)
COc1cc(OC)c(C#N)c(OC)c1C    > 100 µM (inactive)

Next up:
Query :: Return reported GI50; argument: CC1(n2nc(-c3ccccc3)n(-c3ccccc3)c2=O)CSC1
Result :: 82.4 µM (inactive)

* * *

- Test system: OVCAR-8
- Measurement protocol: NCI tumour cell line growth inhibition, 48 h
The source made the active and inactive calls. Cut-off read from the data, not from the text of the source: active = GI50 up to about 1.1 µM and inactive = higher.
Quantity kind: GI50

O=C(CCN1CCOCC1)Nc1ccc2sc3ccccc3c(=O)c2n1    35.9 µM (inactive)

Query :: Return reported GI50; argument: Cc1ccc2c(c1C)CC1(Cc3c(ccc4c3CCC4)C1=O)C2=O (configuration not stated)
Result :: > 100 µM (inactive)

Query :: Return reported GI50; argument: O=C(CCC/C(CC(=O)c1ccc(Br)cc1)=N\O)Nc1ccccc1
Result :: > 100 µM (inactive)

Query :: Return reported GI50; argument: C=C1C(O)CC[C@]2(C)C1C1OC(C)(C)O[C@]13CC(=O)C(C)=C([C@H]1OC(C)(C)OC12)C3(C)C (some centres not stated)
Result :: > 100 µM (inactive)

Query :: Return reported GI50; argument: COC(=O)C(Cc1ccccc1)NP(=O)(O)OCC1OC(n2cc(F)c(=O)[nH]c2=O)CC1O (configuration not stated)
Result :: 9.12 µM (inactive)

Query :: Return reported GI50; argument: CN(CC(=O)O)c1ncc2c(n1)-c1ccccc1SC2
Result :: > 100 µM (inactive)

Query :: Return reported GI50; argument: CC(C)(C)n1c(=O)n(C(=O)C(Cl)(Cl)Cl)n(C(=O)C(Cl)(Cl)Cl)c1=O
Result :: > 100 µM (inactive)

Query :: Return reported GI50; argument: O=C1CSC2=NC3=C(COC/C3=C\c3ccc(F)cc3)C(c3ccc(F)cc3)N12 (configuration not stated)
Result :: 55.7 µM (inactive)

Query :: Return reported GI50; argument: COc1ccc(S(=O)(=O)N/N=C/C(=O)O)cc1
Result :: 499 µM (inactive)

Query :: Return reported GI50; argument: Cn1c2ccccc2c(=O)c2ccc(Cl)cc21
Result :: > 10 µM (inactive)

Query :: Return reported GI50; argument: C(=C/c1ccc2nc(-c3ccc(/C=C/C=N/NC4=NCCCN4)cc3)cn2c1)/C=N/NC1=NCCCN1
Result :: 17.6 µM (inactive)

Query :: Return reported GI50; argument: O=C(Nc1ccccc1)C(=O)C(C(=O)c1ccccc1F)C1OC(=O)c2ccccc21 (configuration not stated)
Result :: 19.5 µM (inactive)
